Biological target: T1, Human B7-H4 ECD-Flag-His10 (monomeric) (human, UniProt Q7Z7D3 25-259)
T1 construct: Minimally biotinylated for KinExA; also called hB7H4-ECD-Flag-His10; B7-H4-FLAG
T1 sequence: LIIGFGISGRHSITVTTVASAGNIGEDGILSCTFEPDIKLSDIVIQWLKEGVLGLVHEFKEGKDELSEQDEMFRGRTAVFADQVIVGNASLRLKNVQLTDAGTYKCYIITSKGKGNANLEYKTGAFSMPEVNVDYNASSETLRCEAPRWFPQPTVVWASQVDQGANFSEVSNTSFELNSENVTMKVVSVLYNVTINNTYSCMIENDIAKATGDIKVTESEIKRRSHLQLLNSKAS
Test: Octet BLI, hIgG1 on Protein G (n = 1)
pKd: −log10 of the molar value.
pKd values, listed per item

Binder	pKd
ZY0EOB-F05 human IgG1 (antibody, V domains shown) VH: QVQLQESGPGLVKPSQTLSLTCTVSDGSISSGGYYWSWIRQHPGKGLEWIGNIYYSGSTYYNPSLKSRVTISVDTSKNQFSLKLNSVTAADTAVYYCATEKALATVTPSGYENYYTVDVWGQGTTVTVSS VL: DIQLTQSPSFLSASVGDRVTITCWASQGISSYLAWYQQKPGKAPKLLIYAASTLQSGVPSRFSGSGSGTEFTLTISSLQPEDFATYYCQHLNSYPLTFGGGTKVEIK	7.93
ZY0EQD-E02 human IgG1 (antibody, V domains shown) VH: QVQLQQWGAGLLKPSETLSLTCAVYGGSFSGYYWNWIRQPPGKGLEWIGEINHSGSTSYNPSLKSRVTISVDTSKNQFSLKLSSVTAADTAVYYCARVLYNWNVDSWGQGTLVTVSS VL: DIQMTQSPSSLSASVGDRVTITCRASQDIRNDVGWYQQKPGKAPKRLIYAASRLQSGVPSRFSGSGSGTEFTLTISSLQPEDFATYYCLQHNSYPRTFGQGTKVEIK	7.83
